methodDescription: Neurotoxicity in ip dosed albino CF1 mouse assessed as minimal motor impairment after 0.25 to 0.5 hrs
Type: toxicity, organism-based
testConditions: in vivo
recordedMetric: TD50 (mg/kg)

compound: CCC[C@@H](C(N)=O)[C@@H](C)CC [(2R,3S)-SEC-BUTYLPROPYLACETAMIDE]
uom: mg/kg
resultComparator: =
measuredNumber: 67
--
compound: CCC[C@H](C(N)=O)[C@@H](C)CC
uom: mg/kg
resultComparator: =
measuredNumber: 126
--
compound: CCC[C@H](C(N)=O)[C@H](C)CC [(2S,3R)-SEC-BUTYLPROPYLACETAMIDE]
uom: mg/kg
resultComparator: >
measuredNumber: 75
--
compound: CCC[C@@H](C(N)=O)[C@H](C)CC [(2R,3R)-SEC-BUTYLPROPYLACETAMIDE]
uom: mg/kg
resultComparator: =
measuredNumber: 94
--
compound: CCCC(C(N)=O)C(C)CC (racemic)
uom: mg/kg
resultComparator: =
measuredNumber: 88

----------
# Activity per entry
Test system: Mus musculus
methodDescription: Teratogenicity in SWV/Fnn mouse assessed as resorption at 141 mg/kg, ip on day 8.5 of gestation (reference value: 6.3 %)
Assay type: toxicity, organism-based
Design: dose 141 mg/kg, route intraperitoneal
testConditions: in vivo

compound: CCCC(C(N)=O)C(C)CC (racemic)
Activity [%]: 7.5

compound: CCC[C@H](C(N)=O)[C@H](C)CC [(2S,3R)-SEC-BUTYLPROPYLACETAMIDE]
Activity [%]: 7.4

compound: CCC[C@@H](C(N)=O)[C@H](C)CC [(2R,3R)-SEC-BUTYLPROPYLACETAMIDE]
Activity [%]: 7.5

compound: CCC[C@H](C(N)=O)[C@@H](C)CC
Activity [%]: 5.8

compound: CCC[C@@H](C(N)=O)[C@@H](C)CC [(2R,3S)-SEC-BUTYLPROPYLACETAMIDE]
Activity [%]: 8.4

----------
methodDescription: Terminal half life in rat at 60 mg/kg, ip
Assay type: ADME, organism-based
Parameters: dose 60 mg/kg, route intraperitoneal
testConditions: in vivo, read-out: beta t1/2 (converted)

compound: CCC[C@@H](C(N)=O)[C@@H](C)CC [(2R,3S)-SEC-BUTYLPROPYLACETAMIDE]
half-life: 1.3 h
//
compound: CCC[C@@H](C(N)=O)[C@H](C)CC [(2R,3R)-SEC-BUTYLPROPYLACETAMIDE]
half-life: 1.1 h
//
compound: CCC[C@H](C(N)=O)[C@H](C)CC [(2S,3R)-SEC-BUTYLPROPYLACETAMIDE]
half-life: 0.95 h
//
compound: CCC[C@H](C(N)=O)[C@@H](C)CC
half-life: 1.5 h
//
compound: CCCC(C(N)=O)C(C)CC (racemic)
half-life: 1.1 h

The reported numbers originate from ChEMBL document CHEMBL2417510.
